Source: ChEMBL document CHEMBL1149662

Examples of molecules with documented pKi follow.
Molecular target: Melanocyte-stimulating hormone receptor (Mus musculus, UniProt Q01727)
Sequence (Q01727 whole entry): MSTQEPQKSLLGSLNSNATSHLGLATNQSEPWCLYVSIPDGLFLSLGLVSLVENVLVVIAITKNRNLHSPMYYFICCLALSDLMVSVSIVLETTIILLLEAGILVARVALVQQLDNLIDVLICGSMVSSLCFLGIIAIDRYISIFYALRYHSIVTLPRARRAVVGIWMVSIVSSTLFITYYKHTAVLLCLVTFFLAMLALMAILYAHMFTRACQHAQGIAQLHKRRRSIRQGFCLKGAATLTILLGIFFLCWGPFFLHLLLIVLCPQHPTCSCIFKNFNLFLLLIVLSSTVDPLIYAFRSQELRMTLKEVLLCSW
Experiment: Displacement of [125I]NDP-MSH from MC1 receptor in mouse B16 cells
Format: cell-based
pKi: −log10 of the molar value.

molecule | pKi
NCCCCCN(Cc1ccc2c(c1)OCO2)C(=O)CCCc1c[nH]c2ccccc12 | 5.26
COc1ccccc1/C=C/CN(C(=O)CCCc1c[nH]c2ccccc12)C1CCC(CC2CCC(N)CC2)CC1 (stereo in doubt; form 1) | 5.82
NCCCCCN(Cc1ccccc1)C(=O)[C@H](N)Cc1ccc2ccccc2c1 | 5.30
NC1CCCC(NC(=O)NC2CCCC(N(Cc3ccccc3)C(=O)CCCc3c[nH]c4ccccc34)C2)C1 (centres undefined) | 5.66
NCCCCCN(Cc1ccc2ccccc2c1)C(=O)Cc1c[nH]c2ccccc12 | 5.82
NC1CCC(CC2CCC(N(Cc3ccccc3Cl)C(=O)CCCc3c[nH]c4ccccc34)CC2)CC1 (centres undefined) | 5.49
NCCCCCN(C/C(Cl)=C\c1ccccc1)C(=O)/C=C/c1c[nH]c2ccccc12 | 5.57
NCCCCCN(C/C=C/c1ccccc1)C(=O)CCc1c[nH]c2ccccc12 | 5.43
CC(C)N(CCCCN)C(=O)c1c[nH]c2ccccc12 | 3.97

* * *

Biological target: Melanocyte-stimulating hormone receptor (Mus musculus, UniProt Q01727)
Assay: Displacement of [125I]NDP-MSH from MC1 receptor in mouse B16 cells
Assay type: cell-based
# yes = Ki below 10 µM (exclusive); no = Ki at/above 10 µM

compound | qualitative.label
NC1CCC(CC2CCC(N(CCc3c(F)cccc3Cl)C(=O)CCCc3c[nH]c4ccccc34)CC2)CC1 (stereo not given) | yes
CSc1ccc(CN(C(=O)CCCc2c[nH]c3ccccc23)C2CCC(CC3CCC(N)CC3)CC2)cc1 (stereo not given) | yes
NCCN(CCCc1ccccc1)C(=O)CCc1c[nH]c2ccccc12 | no
NCCCCCN(CCCc1ccccc1)C(=O)Cc1c[nH]c2ccccc12 | no
NCCCN(Cc1ccc2ccccc2c1)C(=O)Cc1c[nH]c2ccccc12 | no
CC(c1csc2ccccc12)N(CCCN)C(=O)CCCc1c[nH]c2ccccc12 (stereo not given) | yes
NCCCN1CCN(CCCN(Cc2ccccc2)C(=O)CCCc2c[nH]c3ccccc23)CC1 | yes
NCCCN(CCc1ccccc1)C(=O)CCCc1c[nH]c2ccccc12 | no
C/C(=C\c1ccccc1)CN(CCCN)C(=O)Cc1c[nH]c2ccccc12 | yes
NCCCCCN(C/C=C\c1ccccc1)C(=O)CCc1c(Cc2ccc(O)cc2)[nH]c2ccccc12 | yes

* * *

Biological target: Melanocortin receptor 5 (Homo sapiens, UniProt P33032)
Sequence (P33032 whole entry): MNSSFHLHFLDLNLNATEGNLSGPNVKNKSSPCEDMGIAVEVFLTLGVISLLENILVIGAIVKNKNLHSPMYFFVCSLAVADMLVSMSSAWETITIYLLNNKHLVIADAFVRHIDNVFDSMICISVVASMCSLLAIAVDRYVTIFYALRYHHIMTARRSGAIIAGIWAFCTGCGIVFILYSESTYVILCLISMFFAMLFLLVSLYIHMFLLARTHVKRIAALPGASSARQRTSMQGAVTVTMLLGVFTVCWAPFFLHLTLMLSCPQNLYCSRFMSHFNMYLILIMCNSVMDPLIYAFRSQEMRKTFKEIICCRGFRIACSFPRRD
Experiment: Displacement of [125I]NDP-MSH from human recombinant MC5 receptor expressed in Sf9 cells
pKi: −log10 of the molar value.

compound | target | pKi
NC1CCC(CC2CCC(N(Cc3ccccc3Br)C(=O)CCCc3c[nH]c4ccccc34)CC2)CC1 (centres undefined) | Melanocortin receptor 5 (Homo sapiens, UniProt P33032) | 5.04
N[C@H]1CC[C@H](C[C@H]2CC[C@H](N(C/C(Cl)=C/c3ccccc3)C(=O)CCCc3c[nH]c4ccccc34)CC2)CC1 | Melanocortin receptor 5 (Homo sapiens, UniProt P33032) | 5.08
C/C(=C/c1ccccc1)CN(CCCCCN)C(=O)CCCc1c[nH]c2ccccc12 | Melanocortin receptor 5 (Homo sapiens, UniProt P33032) | 5.06
C=C(Br)CN(C(=O)CCCc1c[nH]c2ccccc12)C1CCC(CC2CCC(N)CC2)CC1 (stereo in doubt; form 3) | Melanocortin receptor 5 (Homo sapiens, UniProt P33032) | 5.11
